# TESTED ON: glucagon receptor (human, UniProt P47871 26-477)
# Sequence (P47871 26-477): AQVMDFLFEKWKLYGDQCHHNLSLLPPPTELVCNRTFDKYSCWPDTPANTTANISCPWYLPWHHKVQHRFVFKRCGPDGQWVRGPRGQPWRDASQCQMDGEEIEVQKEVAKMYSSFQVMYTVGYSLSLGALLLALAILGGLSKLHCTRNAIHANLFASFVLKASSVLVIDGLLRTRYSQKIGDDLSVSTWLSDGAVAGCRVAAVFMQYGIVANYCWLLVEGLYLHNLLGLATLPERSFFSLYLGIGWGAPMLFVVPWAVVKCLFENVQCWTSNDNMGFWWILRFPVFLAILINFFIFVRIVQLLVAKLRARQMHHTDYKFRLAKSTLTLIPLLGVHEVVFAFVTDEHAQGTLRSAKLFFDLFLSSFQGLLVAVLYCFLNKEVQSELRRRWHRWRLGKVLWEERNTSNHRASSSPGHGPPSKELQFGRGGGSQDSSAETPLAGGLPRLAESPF
# TEST NAME: cell-based or functional assay
Starred links: 1 amine or outer side, 2 acyl side, 3 side chain; linkers in the order of their positions; H or OH if unused. Non-standard residues stand in square brackets, D forms with d. Groups on a side chain read outwards from the residue. Primed or numbered codes have the meaning given here. No end group written: not given here. *: point of attachment. γGlu = O=C(O)[C@H](CCC(=O)[*:2])N[*:1]; Stearoyl = CCCCCCCCCCCCCCCCCC(=O)*; αMeF = C[C@](N)(Cc1ccccc1)C(=O)O; αMeK = C[C@](N)(CCCCN)C(=O)O; αMeS = C[C@](N)(CO)C(=O)O; PEG2′ = not defined here; Aib = CC(C)(N)C(=O)O
Listing: Primary assay EC50 (cAMP), n1 of selected binders

- BINDER: "H[Aib]EGS[αMeF]TSDVSS[αMeF]LEGEAAK([PEG2′-PEG2′-γGlu-Stearoyl])E[αMeF]IA[αMeF]VV[αMeK]GG-NH2 [SEQ ID NO 46]"
  Primary assay EC50 (cAMP), n1 [nM]: 26
- BINDER: "H[Aib]EGS[αMeF]TSDV[αMeS]S[αMeF]LEGEAA[αMeK]EFIK([PEG2′-PEG2′-γGlu-Stearoyl])WVVEGG-NH2 [SEQ ID NO 68]"
  Primary assay EC50 (cAMP), n1 [nM]: 25
- BINDER: "H[Aib]EGS[αMeF]TSDV[αMeS]S[αMeF]LEGEAAKEFIK([PEG2′-PEG2′-γGlu-Stearoyl])WVVEGG-NH2 [SEQ ID NO 65]"
  Primary assay EC50 (cAMP), n1 [nM]: 25.1
- BINDER: "H[Aib]EGSFTSDV[αMeS]S[αMeF]LEGEAAK([PEG2′-PEG2′-PEG2′-Stearoyl])E[αMeF]IA[αMeF]VV[αMeK]GG-NH2 [SEQ ID NO 51]"
  Primary assay EC50 (cAMP), n1 [nM]: 26
- BINDER: "H[Aib]EGS[αMeF]TSDV[αMeS]S[αMeF]LEGEAAEEFIK([PEG2′-PEG2′-γGlu-Stearoyl])WVVEGG-NH2 [SEQ ID NO 66]"
  Primary assay EC50 (cAMP), n1 [nM]: 25.1
